Data origin, for the record: PubChem BioAssay (NCI)

# reported growth inhibition; entries follow
experiment: NCI Yeast Anticancer Drug Screen. Data for the bub3 strain (AID 167); settings: S. cerevisiae bub3 mutant strain, at 5.0 µM (retest, dose inferred, filed as 0.5), stronger effect = higher value
Compounds without any hit were thinned out: in the full panel of roughly 79,000, 15% have a hit.
The figure you give is taken to be in %; do not add the unit.

Task: Quick one: growth inhibition for CCCCCCCCCCCC[n+]1ccc2ccccc2c1 ?
Output: 99

----------
assay: NCI Yeast Anticancer Drug Screen. Data for the rad50 strain (AID 155);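 note: 0% = growth of vehicle-only cultures of the same strain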; details: S. cerevisiae rad50 strain growth inhibition; at 50.0 µM (retest, dose inferred, filed as 5.0)
Compounds without any hit were thinned out: in the full panel of roughly 79,000, 15% have a hit. Active and inactive are the calls of the source. No stated cut-off is given here; in the data, active means growth inhibition above about 70%; inactive means the rest.
Field 'call' accepts active, inactive

{"MOLECULE": "CC(CSc1n[nH]c(=S)s1)c1ccccc1 (stereo not drawn)", "CLASS_ASSIGNMENT": "active"}
{"MOLECULE": "Cc1cc(C(=C2C=CC(=Nc3ccccc3)C=C2)c2ccc(Nc3ccccc3)cc2)ccc1N", "CLASS_ASSIGNMENT": "inactive"}
{"MOLECULE": "O=C(Nc1ccc(Cl)c(Cl)c1)OCc1ccco1", "CLASS_ASSIGNMENT": "inactive"}

Task: // param item: Cc1ccc(Nc2ccc(O)c3c2C(=O)c2c(O)ccc(Nc4ccc(C)cc4)c2C3=O)cc1 ; yields the recorded call
Output: inactive

Task: // param item: CC(=O)c1ccc2c(c1)sc1cc(C(C)=O)ccc12 ; yields the recorded call
Output: active

Task: // param item: COc1cc(/C=C2\SC(=S)N(/C=C/c3nc4ccccc4[nH]c3=O)C2=O)cc(OC)c1OC ; yields the recorded call
Output: inactive

Task: // param item: NCCN1C(=O)CNC1=S ; yields the recorded call
Output: inactive

Task: // param item: C/C(=N/NC(N)=S)c1ccc(C)cc1 ; yields the recorded call
Output: inactive

Task: // param item: COc1cc(/C=C/c2ccnc3ccccc23)cc(OC)c1OC ; yields the recorded call
Output: inactive

Task: // param item: CCCOC(=O)c1nc(N(CC2CCCCC2)C(=O)NC)sc1/N=C/c1ccccc1 ; yields the recorded call
Output: active

Task: // param item: CCCCCCCCCCCC[n+]1ccc2ccccc2c1 ; yields the recorded call
Output: active

Task: // param item: CCOC(=O)C1(C)CCCC1N (stereo not drawn) ; yields the recorded call
Output: inactive

Task: // param item: CC(=O)c1ccc2c(c1)CCc1ccccc1-2 ; yields the recorded call
Output: active

Task: // param item: Oc1ccc(Cc2cccc(Cl)c2)c(O)c1 ; yields the recorded call
Output: active

Task: // param item: COC(=O)[C@]1(C)CCC[C@]2(C)c3ccc(C(C)C)cc3C(=O)[C@@H](Br)[C@@H]12 ; yields the recorded call
Output: inactive

Task: // param item: S=c1[nH]c(=S)c2[nH]c(=S)[nH]c2[nH]1 ; yields the recorded call
Output: inactive

Task: // param item: CCCCCCCCCCCC1=NCCCN1CCCC ; yields the recorded call
Output: active

Task: // param item: Cc1ccc(NC(=S)C#N)cc1Cl ; yields the recorded call
Output: inactive

----------
Experiment: NCI Yeast Anticancer Drug Screen. Data for the cln2 rad14 strain (AID 165);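 note: 0% = growth equal to vehicle treated cultures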
Conditions: S. cerevisiae cln2 rad14 strain, at 5.0 µM (retest, dose inferred, filed as 0.5)
Experimental: Growth inhibition of yeast strains with defined genetic alterations is measured as a screen for potential anti-cancer activity. Selected strains with alterations in DNA damage repair or cell cycle control were exposed to compounds and growth inhibition was measured relative to vehicle treated controls. The strain used in this assay is cln2 rad14
About 79,000 compounds went through this panel and 15% of them were active in at least one assay; those are over-represented in the sample as a whole. The source made the active and inactive calls. No stated cut-off is given here; in the data, active means growth inhibition above about 70%; inactive means the rest.
Field 'call' accepts 1.0 for active, 0.0 for inactive

{"MOLECULE": "S=C=Nc1ccc(N2CCOCC2)cc1", "CLASS_ASSIGNMENT": 0.0}
{"MOLECULE": "Oc1ccccc1N=Cc1ccccc1", "CLASS_ASSIGNMENT": 0.0}
{"MOLECULE": "Cc1ccc(N2C(=O)C=CC2=O)cc1", "CLASS_ASSIGNMENT": 1.0}
{"MOLECULE": "O=[n+]1c2ccccc2n([O-])c2cc(Cl)ccc21", "CLASS_ASSIGNMENT": 0.0}
{"MOLECULE": "CCOC(=O)c1c(C)[nH]c2ccc(O)cc12", "CLASS_ASSIGNMENT": 0.0}

Task: // param item: O=C1C(=O)c2cccnc2-c2ncccc21 ; yields the recorded call
Output: 1.0

Task: // param item: CCCCCCCCCCCCNCCCc1ccccc1 ; yields the recorded call
Output: 1.0

Task: // param item: Fc1ccc(NCCS)cc1 ; yields the recorded call
Output: 0.0

Task: // param item: CC(=O)N1CC(=O)NC1=S ; yields the recorded call
Output: 0.0

Task: // param item: CC1(c2ccc(O)cc2)CCC(C(C)(C)c2ccc(O)cc2)CC1 (centres undefined) ; yields the recorded call
Output: 0.0

Task: // param item: Cn1c(COC(=O)NC2CCCCC2)c(COC(=O)NC2CCCCC2)c2ccc3cc(Cl)c(Cl)cc3c21 ; yields the recorded call
Output: 0.0

Task: // param item: CC1C(c2ccccc2)OCCN1C(=S)Nc1ccc(S(=O)(=O)N2CCCCC2)cc1 (centres undefined) ; yields the recorded call
Output: 0.0

Task: // param item: Oc1c(C(Nc2ccccc2)c2ccccc2)ccc2cccnc12 (centres undefined) ; yields the recorded call
Output: 0.0

Task: // param item: CC1(C=O)CCC23COC4(CCC5C6(C)CCC(OC7OCC(OC8OC(CO)C(O)C(OC9OC(CO)C(O)C(O)C9O)C8OC8OCC(O)C(O)C8O)C(O)C7OC7OC(CO)C(O)C(O)C7O)C(C)(C)C6CCC5(C)C4(C)CC2O)C3C1 (centres undefined) ; yields the recorded call
Output: 0.0

Task: // param item: Nc1nc(N)c2cc(Sc3cccc(C(F)(F)F)c3)ccc2n1 ; yields the recorded call
Output: 0.0

Task: // param item: CC(C)(C)c1cc([N+](=O)[O-])c(O)c([N+](=O)[O-])c1 ; yields the recorded call
Output: 0.0

Task: // param item: COc1cc(OC)c(/C=C/c2c3ccccc3cc[n+]2C)c(OC)c1 ; yields the recorded call
Output: 0.0

Task: // param item: CCCCCCCCCCCC[S+](C)CC(=O)[O-] (centres undefined) ; yields the recorded call
Output: 0.0

Task: // param item: COC(=O)c1cc([N+](=O)[O-])cc([N+](=O)[O-])c1Cl ; yields the recorded call
Output: 1.0

Task: // param item: COc1cc(N(CCC#N)CCC#N)ccc1/C(N=Nc1ccc(C(=O)O)cc1)=N/NC(=O)c1cc(Br)ccc1O ; yields the recorded call
Output: 0.0

Task: // param item: CCCCNC(=O)C(C)O (centres undefined) ; yields the recorded call
Output: 0.0

Task: // param item: Oc1ccc(Cl)cc1Cc1cc(Cl)ccc1O ; yields the recorded call
Output: 0.0

Task: // param item: N#Cc1c2ccccc2nc2ccccc12 ; yields the recorded call
Output: 0.0

Task: // param item: Oc1ccc(Cl)cc1C(c1cc(Cl)ccc1O)C(Cl)(Cl)Cl ; yields the recorded call
Output: 1.0
